test system: UO-31 renal; test: NCI-60 one-dose screen, 48 h; settings: 10 µM unless noted
About 83,000 compounds went through this panel and 20% of them were active in at least one assay; those are over-represented in the sample as a whole. Active and inactive are the calls of the source. How the source made its calls: active means growth percent below 10; inactive means the rest.
Possible outcomes: True for active, False for inactive

molecule=O=C(CCCN1CCC(O)(c2ccc(Br)cc2)CC1)c1ccc(F)cc1 category_label=False
molecule=CCCCOc1nc2ccc(C)cc2cc1/C=C/C(=O)/C=C(O)/C=C/c1cc2cc(C)ccc2nc1OCCCC category_label=False
molecule="OC(CCCCCCCCC(O)CN1CCc2ccccc2C1)CN1CCc2ccccc2C1 (centres undefined)" category_label=False
molecule=CCN(CC)CC(=O)Nc1c(C)cc(C(=O)NN)cc1C category_label=False
molecule=Cc1cc(O)c2cc3c(O)c(O)ccc3cc2c1 category_label=False
molecule="CC(=O)N1N=C(C2C(=O)N(C)C(=O)N(C)C2=O)CC1c1ccccc1C(=O)O (centres undefined)" category_label=False
molecule="C=C1C[C@@]2(C)C(CC[C@]3(C)C2CC=C2C4CC(C)(C)C[C@@H](OC(=O)/C(C)=C\\C)[C@]4(C(=O)O)CC[C@]23C)C(C)(C)C1=O (some centres undefined)" category_label=True
molecule=Cc1cc(-c2ccc(N=Nc3c(S(=O)(=O)O)cc4cc(S(=O)(=O)O)cc(O)c4c3O)c(C)c2)ccc1N=Nc1c(S(=O)(=O)O)cc2cc(S(=O)(=O)O)cc(O)c2c1O category_label=False
molecule=Clc1ccccc1CNc1c2ccccc2nc2ccccc12 category_label=False
molecule="Oc1c(C(Nc2ccccc2Br)c2ccccc2)ccc2cccnc12 (centres undefined)" category_label=False
molecule="CCOC(=O)C(Cc1ccccc1)n1c(O)c(/C=N/c2ncc(Cc3ccc(Cl)cc3Cl)s2)sc1=S (centres undefined)" category_label=True
molecule=CCN(CC)c1ccc2c(cc1=O)[C@@H](NC(C)=O)CCc1cc(OC)c(OC)c(OC)c1-2 category_label=False
molecule=CC(C)(c1ccccc1)c1cc(O)c(C(C)(C)c2ccccc2)cc1O category_label=False
molecule=Cn1c(-c2ccccc2)cc(=O)n1-c1ccccc1 category_label=False
molecule="CCOC(=O)C1C(=O)C=C(c2cc(OC)c(OC)c(OC)c2)CC1c1sc(N(C)Cc2ccccc2)nc1Cl (centres undefined)" category_label=False
molecule=CC(C)c1cccc(C#N)c1 category_label=False
molecule=CC(=O)c1ccc(N2C(=O)c3ccc(Oc4ccccc4)cc3C2=O)cc1 category_label=False
molecule="O=C1OCC2=C1C(c1ccccc1)c1cc3c(cc1N2CCO)CCC3 (centres undefined)" category_label=False
molecule=CC1=C(/C=C/C(C)=C/C=C(C(=O)O)\C(C)=C\C(=O)O)C(C)(C)CCC1 category_label=False
molecule=CC(=O)Nc1c(Br)cc2c(c1Br)Cc1cc(Br)ccc1-2 category_label=False
molecule=COc1ccc([C@H]2c3[nH]c4ccccc4c3C[C@H]3C(=O)N(CCCCCCC(=O)NO)CC(=O)N23)cc1 category_label=False
molecule="COc1cc(CN(c2ccc(C)cc2)C2OC(=O)c3ccccc32)cc(OC)c1OC (centres undefined)" category_label=False
molecule=CS(=O)(=O)c1ccc(C(=O)N/N=C/c2ccc3c(c2)OCO3)cc1 category_label=False
molecule="N/C(=N\\OC(=O)c1ccccc1)C(Cc1ccccc1)C(=O)NOC(=O)c1ccccc1 (centres undefined)" category_label=True

Value source: PubChem BioAssay (NCI)
